tested on: Fibroblast; experiment: Multiplex assay against human fibroblast; type: toxicity, cell-based; details: 24 h, 1 µM, compound concentration 1 uM, replicate 1
Reported Endpoint: Population Membrane Permeable-Phenotype (%)
I'd appreciate it if you wrote the number followed by its unit.

In: API: value(readout=Population Membrane Permeable-Phenotype (%), system=Fibroblast) for record `CCCOc1ccc2[nH]cc(C3=CCNCC3)c2n1.Cl`
Out: 0%

In: Report Population Membrane Permeable-Phenotype (%) for `COc1ccccc1N1CCN(C[C@@H](C(=O)NC(C)(C)C)c2ccccc2)CC1.Cl.Cl` tested on Fibroblast.
Out: 0%

In: Item `O=C1[C@H](Cc2ccc(O)cc2)N2C(=O)CCN(C(=O)NCc3ccccc3)[C@H]2CN1Cc1cccc2ccccc12` with Fibroblast - Population Membrane Permeable-Phenotype (%)?
Out: 3%
